# credit: patent US12570615B2

Tested on: P-ERK (ERK phospho-T202/Y204) in HCT116 cells expressing WT BRAF
Experiment: HTRF assay for P-ERK determination in HCT116 cells (BRAF activation)
Type: cell-based
Study conditions: Homo sapiens, HCT-116, drug incubation 1 hour, concentration giving 50% of the maximum activation achieved by Dabrafenib
Endpoint label: EC50 (nM)

compound="CN(Cc1ccc(CCCn2cnc3ccc(Oc4c(F)ccc(NS(=O)(=O)C5CCCC5)c4C#N)cc3c2=O)cc1)C(=O)OC(C)(C)C [Example 28]" endpoint_label=EC50 number=836

I: CC(C)(C)OC(=O)NCCCn1cnc2ccc(Oc3c(F)ccc(NS(=O)(=O)C4CCCCC4)c3C#N)cc2c1=O [Example 12]
II: CC(C)(C)OC(=O)N1CCC(CCn2cnc3ccc(Oc4c(F)ccc(NS(=O)(=O)C5CCCC5)c4C#N)cc3c2=O)CC1 [Example 17]
Ask | In the pair I and II , the larger recorded EC50 belongs to which? Please indicate the selected item by its label.
Reply | I
